Entry source: the supplement of paper PMC10126150

Test system: ATP;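 also: ATP exposure 15 min at 22 °C before imaging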
assay-name: switch fluorescence ratio, 500 uM ATP over buffer (Cy3 cluster intensity, sum of 5 cycles each) (fold (ratio)); higher = stronger signal-on switching upon ATP binding; sequences stand for … in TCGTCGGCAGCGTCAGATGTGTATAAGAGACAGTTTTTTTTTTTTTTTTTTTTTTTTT…TC
recorded-conditions: aptamer strand: ATP DNA aptamer (quencher-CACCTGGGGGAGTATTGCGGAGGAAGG + anchor), 100 nM annealed; ATP concentration: 500 uM

| entry-sequence | measured-on | switch fluorescence ratio |
| --- | --- | --- |
| ATTTCTGTTT | ATP | 1 |
| ACTGGTATGG | ATP | 1.01 |
| CGGTGGGGTA | ATP | 1.01 |
| AGAGGCTTGG | ATP | 0.997 |
| TTTTTCCTGT | ATP | 1.01 |
| TCTAAAATTA | ATP | 1.01 |
| ACCTGGTGGG | ATP | 0.984 |
| TGCTGAGTAG | ATP | 0.979 |
| AAAAAAAGGA | ATP | 1.01 |
| TGTGTTCCTT | ATP | 1 |
| TGTTTAATTG | ATP | 0.977 |
| CTGGTTTAGG | ATP | 1 |
| TAAGATAGGA | ATP | 0.982 |
| GGGTAGCTTG | ATP | 0.989 |
| TAAGGGGAAT | ATP | 1 |
| AAAGGTCAT | ATP | 0.993 |
| AGTTGAGATG | ATP | 0.971 |
| GGGGGGACGC | ATP | 1.02 |
| TCCAGATTCT | ATP | 0.983 |
| TTGTTACTCG | ATP | 0.976 |
| TAATAATTAA | ATP | 0.992 |
| GGGACTTGGA | ATP | 0.976 |
| AAGGTTGTTT | ATP | 0.983 |
| TTAGGGATTG | ATP | 1 |
| AAATGACGGC | ATP | 0.988 |
| AGCGGGTTTC | ATP | 1.02 |

###

The reader will find reported switch fluorescence ratio values listed item by item below.
System: ATP;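 also: ATP exposure 15 min at 22 °C before imaging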
assay-name: switch fluorescence ratio, 500 uM ATP over buffer (Cy3 cluster intensity, sum of 5 cycles each) (fold (ratio)); higher = stronger signal-on switching upon ATP binding; sequences stand for … in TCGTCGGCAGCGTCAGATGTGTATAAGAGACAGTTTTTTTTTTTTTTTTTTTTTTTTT…TC
recorded-conditions: aptamer strand: ATP DNA aptamer (quencher-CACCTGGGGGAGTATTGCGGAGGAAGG + anchor), 100 nM annealed; ATP concentration: 500 uM
experimental-endpoint: switch fluorescence ratio

| entry-sequence | quantitative-result |
| --- | --- |
| GTTGTTTCGT | 1 |
| TTTCGGAGGG | 0.982 |
| GTGCTGGATT | 1.02 |
| TGTTAGAACG | 1.02 |
| AAAGTGAAGG | 0.996 |
| TTTAAATTTT | 1 |
| TGCTGGTCTG | 1.02 |
| TGATTTATGA | 0.992 |
| TTTAGGCTTG | 1.02 |
| TCGTGAAGGG | 0.979 |
| GTGGGGTTTC | 0.977 |
| TTTCTAGACA | 1.02 |
| TTAATTATCA | 0.998 |
| TGAGGGGATC | 1.02 |
| AAGAGTTGTA | 1.01 |
| GGGGGAAAGA | 0.989 |
| GATCGAGAGG | 0.98 |
| GTTGTAAGCA | 0.982 |
| GGGATTCTTG | 1.01 |
| ATATTATCAA | 1 |
| TTGTCCTGGG | 1.02 |
| AAAGGGTAAG | 0.975 |
| TGGCACAGAG | 1 |
| GGTGGTACGT | 0.999 |
| ACGAGTAGGC | 0.986 |
| TTTAGAACGA | 1.01 |
| ATTAGACAGC | 1.01 |
| TAAAGTAGTT | 1.01 |
| TTCGGGGTCC | 0.99 |
| ATGTGCCTGT | 0.98 |
| AGACTTTTAT | 0.976 |
| TAGTGCGGGA | 1.02 |
| TGGGGAGGCA | 0.975 |
| GGGGGAGGTA | 0.977 |
| TTGTCACGGG | 1.02 |
| AAATGGTATC | 1.01 |
| CCTTATGGGA | 0.982 |
| CCTACATTG | 1 |
| GGGCATGTTG | 1.02 |
| TTTCGGGCAG | 1.02 |
| CAAAGTTATA | 1.01 |
| AGGGCAGAGA | 1.02 |
| TGTTAATGGT | 0.994 |
| AGGGTAGTTG | 0.994 |
| ATGAAATAGG | 0.98 |
| ACTTATGTGG | 0.974 |
| TATTTTTATT | 1.01 |
| TGGCATTTCC | 1.18 |
| CTATGTATTT | 1 |
| CAATACAGGG | 1.04 |
| TATCACGCAT | 1.36 |
| TGCAGGGTTG | 0.996 |
| AGTGTGGGGG | 1.01 |
| TGTTGATCAG | 0.982 |
| CCCGGCCATT | 1.05 |
| CCATCGGCTG | 1.06 |
| TATTGAGACC | 1.03 |
| AGGAGGGTGG | 1.02 |
| CGACCGGGTA | 1.02 |
| CATATTTTAG | 0.989 |
| CGGATGATGA | 1.02 |
| GCCGGTACAA | 1.01 |
| CTGGTATTCT | 0.996 |
| TTTTTGTGA | 0.995 |
| CAATTGTCGT | 0.991 |
| ATTTAAAAGT | 0.991 |
| GTTGTAGCTG | 0.967 |

###

Test system: ATP;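 also: ATP exposure 15 min at 22 °C before imaging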
assay-name: switch fluorescence ratio, 500 uM ATP over buffer (Cy3 cluster intensity, sum of 5 cycles each) (fold (ratio)); higher = stronger signal-on switching upon ATP binding; sequences stand for … in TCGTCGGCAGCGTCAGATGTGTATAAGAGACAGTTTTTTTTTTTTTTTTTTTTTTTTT…TC
recorded-conditions: aptamer strand: ATP DNA aptamer (quencher-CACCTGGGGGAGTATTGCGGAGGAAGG + anchor), 100 nM annealed; ATP concentration: 500 uM
experimental-endpoint: switch fluorescence ratio

| entry-sequence | quantitative-result |
| --- | --- |
| GAGAGTCTTC | 0.985 |
| AGGGCATTGA | 1.01 |
| TTGTTGA | 0.984 |
| TTTACGGCGG | 0.987 |
| AGTTTGATGG | 0.99 |
| GGGCATGGAG | 0.992 |
| GGGGTTTTCA | 1.02 |
| CGTAAAGGGG | 0.983 |
| GATAAAGAAG | 1 |
| ATGTTGGGTG | 1.02 |
| CGTGAAGCGT | 0.998 |
| AAGGTTCTGA | 0.981 |
| ACAGGAGGAA | 1.01 |
| TGGGGGGCGC | 0.989 |
| AGGGTGAAAG | 0.992 |
| CGGGTGATTA | 1 |

###

System: ATP;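 also: ATP exposure 15 min at 22 °C before imaging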
assay-name: switch fluorescence ratio, 500 uM ATP over buffer (Cy3 cluster intensity, sum of 5 cycles each) (fold (ratio)); higher = stronger signal-on switching upon ATP binding; sequences stand for … in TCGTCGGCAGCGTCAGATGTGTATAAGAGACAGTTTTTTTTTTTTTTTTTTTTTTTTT…TC
recorded-conditions: aptamer strand: ATP DNA aptamer (quencher-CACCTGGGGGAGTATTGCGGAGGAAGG + anchor), 100 nM annealed; ATP concentration: 500 uM
The reader will find reported switch fluorescence ratio values listed item by item below.

| entry-sequence | switch fluorescence ratio |
| --- | --- |
| CTATGTATGT | 1.01 |
| TTCAAATCCC | 1.01 |
| AATGGCTTTG | 1.03 |
| GGGGGCGGGT | 1 |
| TATGAATTGG | 1 |
| AATTGGGATT | 0.998 |
| GGCCCGATTT | 1.01 |

###

Tested on: ATP;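 also: ATP exposure 15 min at 22 °C before imaging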
assay-name: switch fluorescence ratio, 500 uM ATP over buffer (Cy3 cluster intensity, sum of 5 cycles each) (fold (ratio)); higher = stronger signal-on switching upon ATP binding; sequences stand for … in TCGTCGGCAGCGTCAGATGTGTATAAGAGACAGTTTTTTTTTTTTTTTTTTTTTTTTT…TC
recorded-conditions: aptamer strand: ATP DNA aptamer (quencher-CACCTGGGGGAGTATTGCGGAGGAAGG + anchor), 100 nM annealed; ATP concentration: 500 uM
Use met when the recorded switch fluorescence ratio is no lower than 1; use not met when it is lower.

| entry-sequence | measured-on | class-name |
| --- | --- | --- |
| TTGGGGATGC | ATP | met |
| GTTAACGGAC | ATP | met |
| TCTCTTGCGG | ATP | met |
| GTGTGCACGC | ATP | met |
| TCACTATACA | ATP | met |
| TCCGCGGGTT | ATP | met |
| GGGGTCACTA | ATP | not met |
| AAGTAAACAT | ATP | met |
| AATTTTGCTG | ATP | not met |
| TTTGGGTTCC | ATP | met |
| GATTTAATAG | ATP | not met |
| TAGTAACTAC | ATP | met |
| TAGGGCGGAG | ATP | not met |
| ACTCCTTGCT | ATP | met |
| CAGGCAGGGT | ATP | not met |
| ACGGGCTGGG | ATP | met |
| GGGTACCTAC | ATP | met |
| TGATAATTTA | ATP | met |
| GGTTGGGTCC | ATP | not met |
| GTTTCGAGTA | ATP | not met |
| CCGGTTATGA | ATP | met |
